I'd be grateful if you could share measured IC50 for these entries.
# tgt: CDK9/cyclin T1 (Homo sapiens)
# Sequence (P50750 whole entry): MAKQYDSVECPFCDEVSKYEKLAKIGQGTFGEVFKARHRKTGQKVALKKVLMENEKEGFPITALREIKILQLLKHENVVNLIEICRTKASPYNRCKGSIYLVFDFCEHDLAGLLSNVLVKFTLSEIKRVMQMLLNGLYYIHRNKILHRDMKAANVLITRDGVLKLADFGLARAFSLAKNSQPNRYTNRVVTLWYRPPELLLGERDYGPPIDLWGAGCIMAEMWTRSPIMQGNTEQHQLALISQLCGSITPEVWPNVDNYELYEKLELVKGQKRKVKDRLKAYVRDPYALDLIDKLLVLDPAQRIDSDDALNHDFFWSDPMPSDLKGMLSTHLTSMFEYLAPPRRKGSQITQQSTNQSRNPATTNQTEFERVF
# Sequence (O60563 whole entry partner): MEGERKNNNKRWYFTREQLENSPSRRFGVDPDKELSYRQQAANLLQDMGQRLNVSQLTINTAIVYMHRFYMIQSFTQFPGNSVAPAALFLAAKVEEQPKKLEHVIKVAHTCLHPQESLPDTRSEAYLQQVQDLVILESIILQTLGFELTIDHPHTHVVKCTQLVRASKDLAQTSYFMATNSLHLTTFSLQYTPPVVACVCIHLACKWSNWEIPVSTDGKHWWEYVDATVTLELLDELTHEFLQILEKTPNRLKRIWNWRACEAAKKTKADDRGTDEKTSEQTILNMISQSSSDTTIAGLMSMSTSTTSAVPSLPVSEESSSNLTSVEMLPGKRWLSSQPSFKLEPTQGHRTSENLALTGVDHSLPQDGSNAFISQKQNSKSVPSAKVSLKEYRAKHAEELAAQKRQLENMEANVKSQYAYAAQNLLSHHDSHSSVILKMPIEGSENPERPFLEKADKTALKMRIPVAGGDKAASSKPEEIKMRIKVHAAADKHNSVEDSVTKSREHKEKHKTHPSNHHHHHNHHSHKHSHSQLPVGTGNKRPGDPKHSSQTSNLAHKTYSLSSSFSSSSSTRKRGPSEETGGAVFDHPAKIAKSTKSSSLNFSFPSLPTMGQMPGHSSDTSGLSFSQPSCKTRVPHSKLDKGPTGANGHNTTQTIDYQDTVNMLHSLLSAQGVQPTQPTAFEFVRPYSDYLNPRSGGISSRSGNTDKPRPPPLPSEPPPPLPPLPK
# procedure_text: CDK 9 assay (CTD peptide substrate)
# Type: biochemical
# test_context: read-out: Kinase Inhibition pIC50 CDK9-cyclin T1 (converted)
Please state the value followed by its unit.

For the 7 molecules below, give their IC50 values.
1. CCNc1nc(C)c(-c2ccnc(Nc3cccc(S(=O)(=O)NC(C)(C)CO)c3)n2)s1 [Compound 84]
2. CC(=O)NCc1cccc(Nc2nccc(-c3sc(-c4cccnc4)nc3C)n2)c1 [Compound 101]
3. Cc1nc(C)c(-c2ccnc(Nc3cccc(N4CCNCC4)c3)n2)s1 [Compound 8]
4. CCNc1nc(C)c(-c2ccnc(Nc3ccc(CNC(C)=O)cc3)n2)s1 [Compound 13]
5. CNc1nc(C)c(-c2ccnc(Nc3cccc(S(N)(=O)=O)c3)n2)s1 [Compound 19]
6. CCN(C)c1nc(C)c(-c2ccnc(Nc3ccc(N4CCOCC4)cc3)n2)s1 [Compound 120]
7. Cc1cc(Nc2nccc(-c3sc(N)nc3C)n2)ccc1N1CCOCC1 [Compound 218]

Result:
158 nM
5010 nM
501 nM
25.1 nM
2.51 nM
2000 nM
1580 nM

# batch: return IC50 for each of the 2 molecules below
1. Cc1nc(C)c(-c2ccnc(Nc3ccc(N4CCOCC4)c(C)c3)n2)s1 [Compound 220]
2. Cc1nc(C)c(-c2ccnc(Nc3ccc(N4CCN(C(=O)C5CC5)CC4)cc3)n2)s1 [Compound 213]

Result:
["6310 nM", "2510 nM"]

Source listed as patent US20090137572A1.
